Data credit: patent US9951104B2

# assay-method-text: SP16 pharmacokinetic profile, plasma concentration by LC/MS/MS
# Assay type: in vivo, rat
# condition-parameters: SP16, IV (5 mg/kg), normal rats
observable: Last Time point

record_smiles=CC[C@H](C)[C@H](NC(=O)[C@H](CCSC)NC(=O)[C@H](CC(C)C)NC(=O)[C@H](Cc1ccccc1)NC(=O)[C@@H](NC(=O)[C@H](Cc1ccccc1)NC(=O)[C@@H]1CCCN1C(=O)[C@H](CCCCN)NC(=O)[C@H](CC(N)=O)NC(=O)[C@H](Cc1ccccc1)NC(=O)[C@H](CCCCN)NC(=O)[C@@H](N)C(C)C)C(C)C)C(=O)N[C@@H](CCC(=O)O)C(=O)N[C@@H](CCC(N)=O)C(=O)N[C@@H](CC(N)=O)C(=O)N[C@H](C(=O)N[C@@H](CCCCN)C(=O)O)[C@@H](C)O result="8 h"
